- STUDY SYSTEM: FAK (910–1052) (Homo sapiens, UniProt Q05397)
- Sequence (Q05397 910-1052): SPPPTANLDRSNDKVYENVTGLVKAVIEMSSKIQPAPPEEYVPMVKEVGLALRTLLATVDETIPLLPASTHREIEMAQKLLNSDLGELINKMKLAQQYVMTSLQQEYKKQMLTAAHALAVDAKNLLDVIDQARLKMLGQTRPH
MEASURE NAME: Kd (µM)
Answer with a number only, understood to be in µM.

IN: Give the reported Kd for CCCCCCCCCCCCCCCCCC(=O)OCCCO[C@H]1O[C@H](CS(=O)(=O)O)[C@@H](O)[C@H](O)[C@H]1O [SQAP, sulfoquynovosylacylpropanediol] (system: FAK (910–1052) (Homo sapiens, UniProt Q05397)).
OUT: 3.24
